# experiment: modulators of HCV replicon luciferase signal, primary screen, HCV replication inhibitor project, Huh7 cells, luciferase reporter (AID 1109);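 further: huh7 hepatoma cells harbouring a luciferase neomycin HCV replicon reporter; luciferase luminescence as measure of HCV replicon replication; test concentration not given here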
# conditions.used: 48 h, higher = more signal
observation.type: z-score
Just the number.

Recorded z-score (compound CC(C)NC(=O)[C@@]1(C)c2ccccc2C(=O)N(Cc2cc(F)cc(C(F)(F)F)c2)[C@H]1c1ccc(CO)cc1 ): 0.0589

Recorded z-score (compound CCOC(=O)C[C@H]1[C@H](OC(=O)c2ccc(C(=O)c3ccccc3)cc2)[C@@H](NC(=O)c2ccc(-c3ccccc3)cc2)c2cc(OCCCO)ccc2N1C(=O)c1ccc2ccccc2n1 ): -0.91

Recorded z-score (compound C[C@@H](c1ccccc1)N1C(=O)[C@H]2[C@H]3[C@H](O)[C@H](O)CC(=NNC(=O)OCc4ccccc4)[C@H]3CC[C@H]2C1=O ): -2.23

Recorded z-score (compound COC(=O)[C@H](C)NC(=O)CCC1CC(OC(=O)NCc2cccc3ccccc23)CC2(CCCC(COC(=O)NCCc3ccc(Cl)cc3)O2)O1 (stereo partly drawn) ): -1.05

Recorded z-score (compound CCN(CC)c1ccc(N2CC=CC34O[C@@H]5/C=C\CCC(C)OC(=O)C5[C@H]3C(=O)N(CCCO)[C@@H]4C2=O)cc1 (stereo partly drawn) ): -0.527

Recorded z-score (compound CCCCc1nc2c(c3c1C[C@H](C)OC3)CN(CCC(C)C)CC2 ): -0.953

Recorded z-score (compound CCN1C(=O)[C@H]2[C@H]3[C@H](O)C=CC(=O)[C@@H]3CC[C@H]2C1=O ): 0.305

Recorded z-score (compound CO[C@H]1COC(=O)[C@H](C)NC(=O)[C@@H](C)COC(=O)CC=C[C@@H]1C ): -0.504
